Source of measurements: the supplement of paper PMC7125110

In this section we review reported self-cleavage kobs at 10000 uM GlcN6P values for a set of variants.
B1: glmS ribozyme (parent)
chain: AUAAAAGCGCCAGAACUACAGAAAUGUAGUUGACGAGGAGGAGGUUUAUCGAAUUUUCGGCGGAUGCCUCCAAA

Variants of: B1
protocol details: self-cleavage kobs at 10000 uM GlcN6P; higher = faster cleavage; RNA array
setup conditions: with glucosamine-6-phosphate
Fewer inactive variants are shown than the library holds.
Give just the numeric value; s⁻¹ need not be written.

Example results:
Qu. Given the entry G7U C50G C68G , report its measured self-cleavage kobs at 10000 uM GlcN6P.
Ans. 0.000186

Qu. Also need U54G C70A , thanks.
Ans. 0.000109

Qu. Repeat for the following variant: G13C U54C
Ans. 0.000107

Qu. # repeat for A12U A33C
Ans. 0.00113

Qu. How about A14G A15U G29A ?
Ans. 0.00133

Qu. Now consider G9C A48G C67G C68A .
Ans. 0.000631

More entries:
Qu. What measured self-cleavage kobs at 10000 uM GlcN6P goes with A64U C71U ?
Ans. 0.000112

Qu. Same for G29U A42G
Ans. 0.00626

Qu. Quick one: U30A G59A
Ans. 2.5e-05

Qu. Repeat with G21U G41C C70U
Ans. 0.000298

Qu. Then G43A C67U ?
Ans. 0.000152
